These entries and their values trace back to patent US20030166932A1.

Target: UniProt P28705
Test: ligand binding assay
Conditions: read-out: RXR Bind Ki (nM) Y
Ki listing for selected molecules.
Please give a number only; it is taken to be in nM.

{"CHEMICAL SMILES": "C=CCN(c1ccc(C(=O)O)cc1)c1ccc2c(c1)C(C(C)(C)C)=CCC2(C)C", "Ki, nM": 68}

Switching to the query record.
Measured Ki of `CCN(c1ccc(C(=O)O)cc1)c1cc2c(cc1OC(C)C)C(C)(C)CC=C2C(C)C` : 248

====

Molecular target: RXRβ (UniProt P28704)
Test: ligand binding assay
Details: read-out: RXR Bind Ki (nM) β
ASSAY READOUT: Ki

Sample answers from the record:
{"COMPOUND": "CCCCOc1cc2c(cc1N(CC)c1ccc(C(=O)O)cc1)C(C(C)C)=CCC2(C)C [Compound 152]", "Ki": "136 nM"}
{"COMPOUND": "CCCN(c1ccc(C(=O)O)cc1)c1cc2c(cc1C)C(C(C)C)=CCC2(C)C [Compound 54]", "Ki": "> 1000 nM"}
{"COMPOUND": "CCCCCCCOc1cc2c(cc1N(CCC)c1ccc(C(=O)O)cc1)C(C)=CCC2(C)C [Compound 146]", "Ki": "429 nM"}

Measured Ki of CCN(c1ccc(C(=O)O)cc1)c1cc2c(cc1OC)C(C)(C)CC=C2C(C)C [Compound 148] : 15 nM

compound CCN(c1ccc(C(=O)O)cc1)c1cc2c(cc1C)C(C)(C)CC=C2C [Compound 23] , Ki observed: 309 nM

====

Target: UniProt P28705
Assay: holoreceptor transactivation assay
Format: cell-based
Conditions: NA = Not Active; read-out: RXR Trans. EC50 (nM) Y
ASSAY READOUT: EC50 (nM)
// note: answer is a bare numeric in nM

{"MOLECULE": "CCN(c1ccc2c(c1)C(C(C)(C)C)=CCC2(C)C)c1ccc(C(=O)O)cn1 [Compound 173]", "EC50, nM": 2}

Just so you know, measured EC50 for CCCN(c1ccc(C(=O)O)cc1)c1cc2c(cc1OCc1ccccc1)C(C)(C)CC=C2C [Compound 147] came out at 280

The molecule CCC1=CCC(C)(C)c2cc(C)c(N(CC)c3ccc(C(=O)O)cc3)cc21 [Compound 24] showed EC50 equal to 2

====

Target: RARβ (Homo sapiens, UniProt P10826)
Sequence (P10826 1-455): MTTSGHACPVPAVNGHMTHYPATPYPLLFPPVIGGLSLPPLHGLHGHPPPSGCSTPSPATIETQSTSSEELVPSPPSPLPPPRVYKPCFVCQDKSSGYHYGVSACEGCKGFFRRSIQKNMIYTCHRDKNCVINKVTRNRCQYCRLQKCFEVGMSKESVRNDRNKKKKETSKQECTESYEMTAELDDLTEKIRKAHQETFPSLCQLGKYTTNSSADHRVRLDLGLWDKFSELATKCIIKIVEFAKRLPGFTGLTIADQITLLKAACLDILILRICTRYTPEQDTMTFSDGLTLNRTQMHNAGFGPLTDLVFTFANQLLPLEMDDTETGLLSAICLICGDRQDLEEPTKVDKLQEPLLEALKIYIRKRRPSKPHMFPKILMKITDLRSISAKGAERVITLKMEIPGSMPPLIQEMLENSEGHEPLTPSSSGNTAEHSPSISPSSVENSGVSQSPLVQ
Experiment: ligand binding assay
Conditions: read-out: RAR Bind. Ki (nM) β
Decide using Ki alone. Strictly below 4000 nM: fulfilled. Equal to or above 4000 nM: not fulfilled.

{"COMPOUND": "CC1=CCC(C)(C)c2cc(N(C)c3ccc(C(=O)O)cc3)ccc21 [Compound 67]", "CLASS": "not fulfilled"}
{"COMPOUND": "CCCN(c1ccc(C(=O)O)cc1)c1cc2c(cc1C)C(C(C)C)=CCC2(C)C [Compound 54]", "CLASS": "not fulfilled"}
{"COMPOUND": "CCCCCCCOc1cc2c(cc1N(CCC)c1ccc(C(=O)O)cc1)C(C)=CCC2(C)C [Compound 146]", "CLASS": "fulfilled"}
{"COMPOUND": "CCCCCCOc1cc2c(cc1N(CC)c1ccc(C(=O)O)cc1)C(C(C)C)=CCC2(C)C [Compound 153]", "CLASS": "not fulfilled"}
{"COMPOUND": "CCN(c1ccc(C(=O)O)cc1)c1cc2c(cc1OC)C(C)(C)CC=C2C(C)C [Compound 148]", "CLASS": "not fulfilled"}

Now consider the entry below.
Q) I wonder whether CCCN(c1ccc(C(=O)O)cc1)c1ccc2c(c1)C(C(C)(C)C)=CCC2(C)C [Compound 89] has Ki below 4000 nM. Can you tell?
A) not fulfilled
